Ref: ChEMBL document CHEMBL1821688

biological target: Tyrosine-protein phosphatase non-receptor type 6 (Homo sapiens, UniProt P29350); test: Inhibition of human recombinant SHP1 in Tris buffer at pH 8 using OMPF as substrate
Sequence (P29350 whole entry): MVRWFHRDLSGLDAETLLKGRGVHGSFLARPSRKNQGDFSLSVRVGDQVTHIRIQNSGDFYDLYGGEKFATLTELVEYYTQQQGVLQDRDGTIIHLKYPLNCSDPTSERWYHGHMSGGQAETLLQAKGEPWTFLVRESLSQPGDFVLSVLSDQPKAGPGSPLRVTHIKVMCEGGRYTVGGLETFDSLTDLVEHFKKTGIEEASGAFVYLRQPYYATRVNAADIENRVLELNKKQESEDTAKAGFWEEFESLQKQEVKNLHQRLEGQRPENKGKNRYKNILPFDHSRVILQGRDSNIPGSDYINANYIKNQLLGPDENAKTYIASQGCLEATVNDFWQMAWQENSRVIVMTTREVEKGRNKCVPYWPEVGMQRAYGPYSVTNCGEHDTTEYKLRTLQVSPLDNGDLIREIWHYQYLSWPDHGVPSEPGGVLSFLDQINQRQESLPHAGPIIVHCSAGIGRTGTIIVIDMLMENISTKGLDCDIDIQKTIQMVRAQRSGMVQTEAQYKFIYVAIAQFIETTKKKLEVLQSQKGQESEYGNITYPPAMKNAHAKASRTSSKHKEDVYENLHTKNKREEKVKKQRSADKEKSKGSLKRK
readout-name: IC50 (µM)
Write the value in µM as a bare number.

See these solved cases before continuing.
INSERT INTO assay_data (molecule, tested_system, result_value) VALUES
  ('O=C(Cc1ccc(Cl)cc1)NC(Cc1ccc2cc(OCc3ccccc3F)ccc2c1)C(=O)O (racemic)', 'Tyrosine-protein phosphatase non-receptor type 6 (Homo sapiens, UniProt P29350)', 15.6),
  ('O=C(/C=C/c1ccccc1Cl)NC(Cc1ccc2cc(OCc3ccccc3F)ccc2c1)C(=O)O (racemic)', 'Tyrosine-protein phosphatase non-receptor type 6 (Homo sapiens, UniProt P29350)', 2.43),
  ('O=C(/C=C/c1ccccc1Br)NC(Cc1ccc2cc(OCc3ccccc3F)ccc2c1)C(=O)O (racemic)', 'Tyrosine-protein phosphatase non-receptor type 6 (Homo sapiens, UniProt P29350)', 11),
  ('O=C(/C=C/c1cccc(F)c1)NC(Cc1ccc2cc(OCc3ccccc3F)ccc2c1)C(=O)O (racemic)', 'Tyrosine-protein phosphatase non-receptor type 6 (Homo sapiens, UniProt P29350)', 26.5);

Reported IC50 of O=C(/C=C/c1ccccc1F)NC(Cc1ccc2cc(OCc3ccccc3F)ccc2c1)C(=O)O (racemic) : 9.84

Reported IC50 of COc1cccc(/C=C/C(=O)NC(Cc2ccc3cc(OCc4ccccc4F)ccc3c2)C(=O)O)c1 (racemic) : 16.4

Reported IC50 of O=C(/C=C/c1ccc(Cl)cc1)NC(Cc1ccc2cc(OCc3ccccc3F)ccc2c1)C(=O)O (racemic) : 16.3

Reported IC50 of O=C(/C=C/c1ccc(Cl)cc1Cl)NC(Cc1ccc2cc(OCc3ccccc3F)ccc2c1)C(=O)O (racemic) : 12.5
